# Test system: MCF7
# ASSAY_METHOD_TEXT: Antiproliferative activity against human MCF7 cells assessed as reduction in cell viability incubated for 72 hrs by MTT assay
# Type: functional, cell-based
# CONDITION_SET: MCF7, 72 h
PARAMETER_MEASURED: IC50 (nM)
// note: answer is a bare numeric in nM

Can you look up the measured IC50 of COc1ccc([Se](=O)c2cc(OC)c(OC)c(OC)c2)cc1O (stereo unspecified) for me?
25

* * *

# Test system: SGC-7901
# ASSAY_METHOD_TEXT: Antiproliferative activity against human SGC-7901 cells assessed as reduction in cell viability by MTT assay
# Type: functional, cell-based
Listed next: entries and their corresponding pIC50.
The quantity pIC50 is defined as the negative base-10 logarithm of the molar concentration.

Examples with their reported pIC50 follow.
{"columns": ["STRUCTURE_STRING", "SYSTEM_NAME", "pIC50"],
 "data": [
  ["COc1ccc([Se]c2c(C)[nH]c3c(OC)c(OC)c(OC)cc23)cc1O", "SGC-7901", 7.27],
  ["COc1ccc([Se]c2c[nH]c3c(OC)c(OC)c(OC)cc23)cc1O", "SGC-7901", 6.66]
]}

Let us move to another entry and its pIC50.
Can you look up the measured pIC50 of COc1ccc(/C=C\c2cc(OC)c(OC)c(OC)c2)cc1O for me?
7.96

* * *

# Test system: KB
# ASSAY_METHOD_TEXT: Antiproliferative activity against human KB cells assessed as reduction in cell viability by MTT assay
# Assay type: functional, cell-based
PARAMETER_MEASURED: pIC50
The quantity pIC50 is defined as the negative base-10 logarithm of the molar concentration.

Examples with their reported pIC50 follow.
{"columns": ["STRUCTURE_STRING", "pIC50"],
 "data": [
  ["COc1ccc([Se]c2c[nH]c3c(OC)c(OC)c(OC)cc23)cc1O", 6.19],
  ["COc1ccc([Se]c2c(C)[nH]c3c(OC)c(OC)c(OC)cc23)cc1O", 7.60]
]}

Can you look up the measured pIC50 of COc1ccc(/C=C\c2cc(OC)c(OC)c(OC)c2)cc1O for me?
8.40
